# SUBJECT OF TEST: T1, complement protein C3b (UniProt P01024 749-1663; P01024 23-667)
# T1 construct: also called factor C3b
# METHOD NOTES: SPR, C3b coupled to chip, 1:1 steady state affinity model
// values below are reported Kd
Lab note: write values as number then unit, every time.

# BINDER, Kd
data = [
    ("DAF(1-4)FH(19-20) short linker (other, Fusion protein; the two domains are joined directly; also called DAF(1-4)FH(19-20)-SL) DCGLPPDVPNAQPALEGRTSFPEDTVITYKCEESFVKIPGEKDSVICLKGSQWSDIEEFCNRSCEVPTRLNSASLKQPYITQNYFPVGTVVEYECRPGYRREPSLSPKLTCLQNLKWSTAVEFCKKKSCPNPGEIRNGQIDVPGGILFGATISFSCNTGYKLFGSTSSFCLISGSSVQWSDPLPECREIYCPAPPQIDNGIIQGERDHYGYRQSVTYACNKGFTMIGEHSIYCTVNNDEGEWSGPPPECRGPGGGKCGPPPPIDNGDITSFPLSVYAPASSVEYQCQNLYQLEGNKRITCRNGQWSEPPKCLHPCVISREIMENYNIALRWTAKQKLYSRTGESVEFVCKRGYRLSSRSHTLRTTCWDGKLEYPTCAKR", "0.125 µM"),
    ("DAF(1-4) (other, Produced in Pichia pastoris; also called soluble DAF; sDAF) DCGLPPDVPNAQPALEGRTSFPEDTVITYKCEESFVKIPGEKDSVICLKGSQWSDIEEFCQRSCEVPTRLNSASLKQPYITQNYFPVGTVVEYECRPGYRREPSLSPKLTCLQNLKWSTAVEFCKKKSCPNPGEIRNGQIDVPGGILFGATISFSCNTGYKLFGSTSSFCLISGSSVQWSDPLPECREIYCPAPPQIDNGIIQGERDHYGYRQSVTYACNKGFTMIGEHSIYCTVNNDEGEWSGPPPECR", "11.5 µM"),
]

The record that follows has no Kd shown yet.
Sure, the documented Kd for FH(19-20) (other, also called CCPs 19 and 20 of Factor H) KCGPPPPIDNGDITSFPLSVYAPASSVEYQCQNLYQLEGNKRITCRNGQWSEPPKCLHPCVISREIMENYNIALRWTAKQKLYSRTGESVEFVCKRGYRLSSRSHTLRTTCWDGKLEYPTCA is 4.67 µM
